# Test system: P12-Ichikawa
# assay explanation: cell viability relative to DMSO control; higher = less cytotoxic
# stated conditions: RPMI 5 mM glucose + 10% dialyzed FBS; 48 h; 0.00234 µM
For each entry below, report its cell viability value.
Answers are plain numbers, in %.

Please review the entries below; each comes with its answer.
CC[C@H](NC1=C2N=C[NH]C2=NC=N1)C/3=N/C4=C(C(=CC=C4)F)C(=O)N3C5=CC=CC=C5 123
Clc1ccc(-c2nc3sccn3c2/C=N/OCc2ccc(Cl)c(Cl)c2)cc1 110
N[S+]([O-])(=O)C1=CC=C(NC/2=C/C(=O)C3=CC=CC=C3C2=O)C=C1 114

Parameter requested: cell viability. Apply to each item below.
1. OC[C@@H](O)[C@@H](O)[C@H](O)[C@@H](O)CO
2. CCC1(c2ccccc2)C(=O)NCNC1=O
3. O=C1NC(=O)/C(=C/c2ccc3nccc(-c4ccncc4)c3c2)S1
4. COc1cc(OC2CCN(C)CC2)ccc1Nc1ncc2c(n1)n(C1CCCC1)c(=O)n2C
5. O=c1[nH]c(=O)n([C@H]2C[C@H](O)[C@@H](CO)O2)cc1/C=C/Br

a:
1. 109
2. 109
3. 109
4. 80.6
5. 104

====

For each entry below, report its cell viability value.
# System: P12-Ichikawa
# assay explanation: cell viability relative to DMSO control; higher = less cytotoxic
# stated conditions: RPMI 5 mM glucose + 10% dialyzed FBS; 48 h; 0.00234 µM
Give bare numbers, in %.

Please review the entries below; each comes with its answer.
compound	cell viability / %
C[C@]12CCC(=O)C=C1CC[C@@H]1[C@@H]2[C@@H](O)C[C@@]2(C)[C@H]1CC[C@]2(O)C(=O)CO	115
COc1ccccc1OCC(O)COC(N)=O (stereo not given)	105
O=C1[C@H](Cc2ccc(O)cc2)N2C(=O)CCN(C(=O)NCc3ccccc3)[C@H]2CN1Cc1cccc2ccccc12	78.2
Cn1cnc2c(F)c(Nc3ccc(Br)cc3F)c(C(=O)NOCCO)cc21	98
CNc1nc(Nc2ccc(C(=O)N3CCOCC3)cc2OC)ncc1Cl	115
ClC1=CC=C(C=C1)C(C#N)C2=C(Cl)C=C(C=C2Cl)N3\N=C/C(=O)NC3=O (stereo not given)	99.3
CC(C)C1NC(=O)C(NC(=O)C2=C3\N=C\4/C(=C(C)\C(=O)\C(=C4C(=O)NC5C(C)OC(=O)C(C(C)C)N(C)C(=O)CN(C)C(=O)C6CCCN6C(=O)C(NC5=O)C(C)C)N)OC3=C(C)C=C2)C(C)OC(=O)C(C(C)C)N(C)C(=O)CN(C)C(=O)C7CCCN7C1=O (stereo not given)	10.6
C[C@]12CC[C@@H]3c4ccc(O)cc4CC[C@H]3[C@@H]1[C@@H](O)[C@@H](O)[C@@H]2O	120
C[C@]12CC[C@H]3[C@@H](CC[C@H]4NC(=O)\C=C/[C@]34C)[C@@H]1CC[C@@H]2C(=O)NC5=CC(=CC=C5C(F)(F)F)C(F)(F)F	111

For the next question, use this compound.
q: Please indicate cell viability recorded for O=C(O)C1(Cc2cccc(Nc3nccs3)n2)CCC(Oc2cccc(Cl)c2F)CC1 (stereo not given)
a: 116

====

# Tested on: P12-Ichikawa
# assay explanation: cell viability relative to DMSO control; higher = less cytotoxic
# stated conditions: HPLM + 10% dialyzed FBS; 48 h; 46.1 µM
For each entry below, report its cell viability value.
One number for each entry, in %.

Please review the entries below; each comes with its answer.
molecule	measured
CC1=C(C)C(=O)C(C(CCCCCC(=O)O)c2ccccc2)=C(C)C1=O (configuration not stated)	70.6
COc1ccc(-c2ccc3ncc4c(c3c2)n(-c2ccc(N3CCNCC3)c(C(F)(F)F)c2)c(=O)n4C)cn1	3.22
CCN1CCN(c2ccc(Nc3cc(N(C)C(=O)Nc4c(Cl)c(OC)cc(OC)c4Cl)ncn3)cc2)CC1	35.3
C[C@]12COC(=O)C[C@@H]1CC[C@@H]1[C@@H]2CC[C@@]2(C)[C@H]1CC[C@]2(C)O	88.1
CC[C@]12CC[C@H]3[C@@H](CCC/4=C/C(=O)CC[C@H]34)[C@@H]1\C=C/[C@@]2(O)C#C	119
Cc1onc(-c2ccccc2Cl)c1C(=O)N[C@@H]1C(=O)N2[C@@H]1SC(C)(C)[C@@H]2C(=O)[O-]	106
CC(C)(O)CC[C@@H](O)[C@](C)(O)[C@H]1CC[C@@]2(O)C/3=C/C(=O)[C@@H]4C[C@@H](O)[C@@H](O)C[C@]4(C)[C@H]3CC[C@]12C	87.4
Cn1cnc2c(F)c(Nc3ccc(Br)cc3F)c(C(=O)NOCCO)cc21	81.2
C[S+](=O)([O-])Nc1ccc([N+](=O)[O-])cc1Oc1ccccc1	59.4
c1ccc(CCCN2CCN(CCOC(c3ccccc3)c3ccccc3)CC2)cc1	67.3

Parameter requested: cell viability. Apply to each item below.
1. CNC(=O)c1ccc2cc(C3(O)CCn4cncc43)ccc2c1 (configuration not stated)
2. CC(C)(C)OC(=O)N[C@H]1CCCCC/C=C\[C@@H]2C[C@@]2(C(=O)N[S+](=O)([O-])C2CC2)NC(=O)[C@@H]2C[C@@H](OC(=O)N3Cc4cccc(F)c4C3)CN2C1=O

a:
1. 114
2. 87.1

====

For each entry below, report its cell viability value.
# System: P12-Ichikawa
# assay explanation: cell viability relative to DMSO control; higher = less cytotoxic
# stated conditions: RPMI 5 mM glucose + 10% dialyzed FBS; 48 h; 1.71 µM
One number for each entry, in %.

molecule	tested on	measurement units	cell viability
CNC(=O)c1ccc(N2C(=S)N(c3cnc(C#N)c(C(F)(F)F)c3)C(=O)C23CCC3)cc1F	P12-Ichikawa	%	123
CCN1CCN(c2ccc(Nc3cc(N(C)C(=O)Nc4c(Cl)c(OC)cc(OC)c4Cl)ncn3)cc2)CC1	P12-Ichikawa	%	110
CC1CNc2c(cccc2[S+](=O)([O-])N[C@@H](CCCNC(=N)N)C(=O)N2CC[C@@H](C)C[C@@H]2C(=O)O)C1 (stereo partly specified)	P12-Ichikawa	%	109
O=C1c2ccccc2-[n+]2ccc3c([nH]c4ccccc43)c21	P12-Ichikawa	%	113
C[C@]12CC[C@H]3[C@@H](CC[C@H]4NC(=O)\C=C/[C@]34C)[C@@H]1CC[C@@H]2C(=O)NC5=CC(=CC=C5C(F)(F)F)C(F)(F)F	P12-Ichikawa	%	98.4

Parameter requested: cell viability. Apply to each item below.
1. CC(C)(C)NC(=O)Nc1cccc(Nc2ncc(F)c(NC(C)(C)CO)n2)c1
2. CCC[S+]([O-])c1ccc2[nH]c(NC(=O)OC)nc2c1 (stereo unspecified)

a:
1: 119; 2: 84.3

====

# Tested on: SEM cells
# assay explanation: cell viability relative to DMSO control; higher = less cytotoxic
# stated conditions: RPMI 5 mM glucose + 10% FBS; 48 h; 15.4 µM
For each entry below, report its cell viability value.
Numbers only, in %.

Please review the entries below; each comes with its answer.
compound	cell viability, %
OC[C@H]1O[C@H]([C@H](O)[C@@H]1O)N2\C=C/C(=O)NC2=O	78.3
FC1=C(C=C(C\C2=N\NC(=O)C3=C2C=CC=C3)C=C1)C(=O)N4CCN(CC4)C(=O)C5CC5	13.1

Parameter requested: cell viability. Apply to each item below.
1. O=C(NCC1CCCCN1)c1cc(OCC(F)(F)F)ccc1OCC(F)(F)F (configuration not stated)
2. CCc1ccc(CCOc2ccc(CC3SC(=O)NC3=O)cc2)nc1 (configuration not stated)

a:
121
80

Parameter requested: cell viability. Apply to each item below.
1. C[C@]12CC[C@@H]3c4ccc(O)cc4CC[C@H]3[C@@H]1[C@@H](O)[C@@H](O)[C@@H]2O
2. COc1ccc([S+](=O)([O-])N(C(C)=O)c2ccccc2/C=C/c2cc[n+]([O-])cc2)cc1
3. C[C@H]1COC2=C3N1\C=C(C(O)=O)/C(=O)C3=CC(=C2N4CCN(C)CC4)F
4. CC(C)c1noc(N2CCC(COc3ccc(-c4ccc([S+](C)(=O)[O-])cc4)nc3)CC2)n1

a:
1. 99.4
2. 18.4
3. 58.6
4. 114

Parameter requested: cell viability. Apply to each item below.
1. O=C(c1ccc(F)cc1)N1CCC[C@H](c2nc(-c3ccc(F)cc3)no2)C1
2. CC(C)OC(=O)/C1=C/N(CC(C)(C)C2=C1[NH]C3=CC=CC=C23)C(=O)C4=CC=C(F)C(=C4)F
3. OC[C@@H](O)[C@@H](O)[C@H](O)[C@@H](O)CO
4. N#CCNC(=O)c1ccc(-c2ccnc(Nc3ccc(N4CCOCC4)cc3)n2)cc1
5. Cn1cnc2c(F)c(Nc3ccc(Br)cc3F)c(C(=O)NOCCO)cc21
6. CC(C)CNc1ccnc(NCc2csc(-c3ccccc3)n2)n1

a:
[106, 61.8, 116, 37.9, 70.9, 88.9]

Parameter requested: cell viability. Apply to each item below.
1. C[C@]12CCC(=O)C=C1CC[C@@H]1[C@@H]2[C@@H](O)C[C@@]2(C)[C@H]1CC[C@]2(O)C(=O)CO
2. O=C(O)CCC1CCC(c2cc(F)ccc2F)([S+](=O)([O-])c2ccc(Cl)cc2)CC1 (configuration not stated)
3. CNCC(O)c1ccc(O)cc1 (configuration not stated)

a:
[68.2, 113, 114]
